src = PubChem BioAssay (NCI)

system: MDA-MB-468 breast; assay: NCI tumour cell line growth inhibition, 48 h
ASSAY_ENDPOINT: log10 TGI (log10 of the value in nM)

COMPOUND: CN1CCN(Cc2ccc(NC(=O)c3cncc(C#Cc4c(N)ncc5ccc(F)cc45)c3)cc2C(F)(F)F)CC1
ASSAY_ENDPOINT: log10 TGI
EXPERIMENTAL_RESULT: 4.09
//
COMPOUND: CC(=O)OC1C(OC/C2=C/C3[C@@H](C(C)C)CC=C(C)[C@@H]3CC(OC(=O)/C=C/c3cn(C)cn3)[C@]3(C)C=C[C@@]2(O)O3)OCC(O)C1O (some centres undefined)
ASSAY_ENDPOINT: log10 TGI
EXPERIMENTAL_RESULT: 1.99
//
COMPOUND: COc1cc(C2C3=C(COC3=O)N(CCO)c3cc4c(cc32)CCC4)cc(OC)c1OC (centres undefined)
ASSAY_ENDPOINT: log10 TGI
EXPERIMENTAL_RESULT: 2.18
//
COMPOUND: CCCCCCn1c(=N)n(CC(O)COc2cccc(C)c2)c2ccccc21 (centres undefined)
ASSAY_ENDPOINT: log10 TGI
EXPERIMENTAL_RESULT: 3.55
//
COMPOUND: COC(=O)[C@@H](C)C[C@H](Cc1ccccc1)NC(=O)c1cccc([C@@H](C[C@H](C(C)C)N(C)C(=O)[C@@H](NC(=O)[C@H]2CCCCN2C)C(C)C)OC(C)=O)n1
ASSAY_ENDPOINT: log10 TGI
EXPERIMENTAL_RESULT: 2.16
//
COMPOUND: CCOC(=O)C(Cc1ccc(N(CCCl)CCCl)cc1)NC(=O)C(CC(C)C)NC(C)=O (centres undefined)
ASSAY_ENDPOINT: log10 TGI
EXPERIMENTAL_RESULT: 3.34
//
COMPOUND: COc1ccc(/C(C)=C(\c2ccc(Cl)cc2)c2ccc(OCCN3CCCCC3)cc2)cc1F
ASSAY_ENDPOINT: log10 TGI
EXPERIMENTAL_RESULT: 3.75
//
COMPOUND: Cc1cccc(NC(=O)c2sc3nc4c(cc3c2N)CCC4)c1C
ASSAY_ENDPOINT: log10 TGI
EXPERIMENTAL_RESULT: 2.84

----------
system: MDA-MB-468 breast; assay: NCI tumour cell line growth inhibition, 48 h
Response key: true means TGI >= 2 µM; false means TGI < 2 µM.

COMPOUND: CN(C)CCCn1c2c(c3ccncc3c1=O)C(=O)c1ccccc1-2
CLASSIFICATION: true

COMPOUND: C=C1C(=O)O[C@H]2[C@H]1CC/C(Cn1cc(CNC(=O)c3cc4ccccc4[nH]3)nn1)=C\CC[C@@]1(C)O[C@@H]21
CLASSIFICATION: true

COMPOUND: O=C1/C(=C/c2ccc([N+](=O)[O-])s2)Oc2ccc(Cl)cc21
CLASSIFICATION: false

COMPOUND: COc1cc2c(cc1Nc1nc(Nc3ccsc3C(N)=O)c3cc[nH]c3n1)N(C(=O)CN(C)C)CCC2
CLASSIFICATION: false

COMPOUND: Cn1cnc2nc(Cl)nc(Cl)c21
CLASSIFICATION: true

COMPOUND: Cc1cc(N2CCOCC2)nc(N(CCNc2ccnc3cc(Cl)ccc23)Cc2cccs2)n1
CLASSIFICATION: true

COMPOUND: CCN(CC)CCCC(C)NC(=S)N/N=C(\C)c1ccccn1 (stereo not given)
CLASSIFICATION: true

COMPOUND: Cn1cc(C2=C(c3cn(CCCSC(=N)N)c4ccccc34)C(=O)NC2=O)c2ccccc21
CLASSIFICATION: false

COMPOUND: COc1c(C)cnc(Cn2cnc3c(Cl)nc(N)nc32)c1C
CLASSIFICATION: false

COMPOUND: CCCCc1ccc(C(N)=O)nc1
CLASSIFICATION: true
